This collection of values is drawn from patent US11008403.

# TARGET DESC: T1, cyno TfR ECD (cynomolgus)
# T1 chain: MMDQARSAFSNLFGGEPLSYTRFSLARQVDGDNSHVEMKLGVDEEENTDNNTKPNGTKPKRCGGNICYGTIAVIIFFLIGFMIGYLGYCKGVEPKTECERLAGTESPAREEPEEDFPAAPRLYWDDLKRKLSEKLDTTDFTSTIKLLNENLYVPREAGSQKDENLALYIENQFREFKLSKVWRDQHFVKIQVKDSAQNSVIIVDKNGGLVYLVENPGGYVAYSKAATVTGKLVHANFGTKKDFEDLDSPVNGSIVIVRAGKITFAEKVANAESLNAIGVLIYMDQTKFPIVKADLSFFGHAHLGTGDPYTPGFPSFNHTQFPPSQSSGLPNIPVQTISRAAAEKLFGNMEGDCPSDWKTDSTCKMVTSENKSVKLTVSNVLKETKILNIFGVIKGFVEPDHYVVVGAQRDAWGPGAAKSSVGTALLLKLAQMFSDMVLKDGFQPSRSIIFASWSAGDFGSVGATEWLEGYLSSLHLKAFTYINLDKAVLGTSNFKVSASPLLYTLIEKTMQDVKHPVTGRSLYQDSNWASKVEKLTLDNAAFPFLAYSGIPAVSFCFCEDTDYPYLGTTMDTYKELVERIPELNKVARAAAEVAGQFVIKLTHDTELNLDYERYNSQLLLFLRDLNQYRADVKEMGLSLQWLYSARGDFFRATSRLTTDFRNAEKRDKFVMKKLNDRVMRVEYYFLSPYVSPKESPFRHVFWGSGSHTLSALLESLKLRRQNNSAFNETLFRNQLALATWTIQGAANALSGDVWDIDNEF
# EXPERIMENTAL PROTOCOL: ELISA
ASSAY READOUT: EC50 (ng/mL)
State the answer as a number, implicitly in ng/mL.

Past entries and their recorded results:
hu15G11.v5 HC I51A (antibody, V domains shown) VH: EVQLVQSGAEVKKPGASVKVSCKASGYTFTSYWMHWVRQAPGQRLEWIGEANPTNGRTNYIEKFKSRATLTVDKSASTAYMELSSLRSEDTAVYYCARGTRAYHYWGQGTMVTVSS VL: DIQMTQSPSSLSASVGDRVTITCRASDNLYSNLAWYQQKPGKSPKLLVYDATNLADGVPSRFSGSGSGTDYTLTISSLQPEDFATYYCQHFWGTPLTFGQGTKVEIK ... 0.6
hu15G11.v5 LC D27A (antibody, V domains shown) VH: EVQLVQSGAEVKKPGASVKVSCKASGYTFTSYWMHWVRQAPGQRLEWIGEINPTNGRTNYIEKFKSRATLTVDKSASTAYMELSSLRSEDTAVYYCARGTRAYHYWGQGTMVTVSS VL: DIQMTQSPSSLSASVGDRVTITCRASANLYSNLAWYQQKPGKSPKLLVYDATNLADGVPSRFSGSGSGTDYTLTISSLQPEDFATYYCQHFWGTPLTFGQGTKVEIK ... 0.8

Recorded result, hu15G11.v5 HC T53A (antibody, V domains shown) VH: EVQLVQSGAEVKKPGASVKVSCKASGYTFTSYWMHWVRQAPGQRLEWIGEINPANGRTNYIEKFKSRATLTVDKSASTAYMELSSLRSEDTAVYYCARGTRAYHYWGQGTMVTVSS VL: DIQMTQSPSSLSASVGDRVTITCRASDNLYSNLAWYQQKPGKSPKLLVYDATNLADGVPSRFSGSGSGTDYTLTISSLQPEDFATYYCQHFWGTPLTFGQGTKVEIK , EC50: 0.7
